Molecular target: T1, Cynomolgus macaques TSLP recombinant protein (Cynomolgus macaques, UniProt Q969D9 29-159 (human entry), limits assumed, biotinylated in the blocking assays (sites not given))
T1 construct: also called cyTSLP; biotinylated Cynomolgus macaques TSLP protein
T1 chain: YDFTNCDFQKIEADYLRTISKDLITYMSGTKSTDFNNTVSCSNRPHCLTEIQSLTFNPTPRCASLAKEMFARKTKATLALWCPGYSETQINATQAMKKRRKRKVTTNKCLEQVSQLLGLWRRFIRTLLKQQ
Assay: competition ELISA, biotin-cynomolgus TSLP to coated cynomolgus TSLPR-Fc
Field: pIC50. Provide a value for each of the binders that follow.
One number for each entry, as −log10 of the molar value.

These solved cases illustrate the format of a correct answer.
- 71G4 chimeric antibody (antibody, V domains shown) VH: QVQLQQSGAELVMPGASVKMSCKASGYTFTDYWMHWVKQRPGQGLEWIGTIDNSDSDTTYNQKFKGKVTLTVDESSSTAYMQLSSLTSEDSAVYYCARSVDGYLDYWGQGTTLTVSS VL: EIQMTQSPASLSASVGETVTITCRTSENIYSYLAWYQQKQGKSPQLLVYFAKTLTDGVPSRLSGSGSGTQFSLKINSLQPEDFGSYYCQHHYGTPWTFGGGTKLEIK: 9.25
- 79D6 chimeric antibody (antibody, V domains shown) VH: QVQLQQSGAELVMPGASVKMSCKASGYTFTGYWMHWVKQRPGQGLEWIGTIDNSDSDTTYNQKFKGKVTLTVDESSSTAYMQLSSLTSEDSAVYYCARSVDGYLDYWGQGTTLTVSS VL: DIQMIQSPASLSASVGETVTITCRASENIYSYLAWYQQIQGKSPQLLVYYAKTLPEGVPSRFSGSGSGTQFSLKINSLQPEDFGSYYCQHHYGTPWTFGGGTKLEIK: 9.51
- 80B12 chimeric antibody (antibody, V domains shown) VH: QVQLQQSGPQLVRPGASVKISCKASGYSFTTYWMHWVKQRPGQGLEWIGLIDPSDGEAGLNQNFKDKATLTVDISSRTAYMQISSPTSEDSAVYFCARSLDGYYDYWGQGTTLTVSS VL: DIQMTQSPASLSASVGETVTITCRASEDIYSYLAWYQQKQGKSPQLLVYNAKTLAEGVPSRFSGSGSGTQFSLKINSLQPEDFGSYYCQHFWSTPWTFGGGTKLELK: 9.27

Now for another entry.
Input: Note down pIC50 recorded for 80D12 chimeric antibody (antibody, V domains shown) VH: QVQLKQSGPQLVRPGASVKISCKASGYSFTSYWMHWVKQRPGQGLEWIGMIDPSDSETTLNQKFKDKATLTVDKSSTTAYMQLSSPTSEDSAVYYCARSLDGYYDYWGQGTTLTVSS VL: DVQMIQSPASLSASVGETVTITCRTSENIYSYLAWYQQKQGKSPQLLVYFAKTLTDGVPSRFSGSGSGTQFSLKINSLQPEDFGSYYCQHHYGTPWTFGGGTKLEIK
Output: 9.20
